Recorded values, source ChEMBL document CHEMBL1201862.

GI50 values by entry
- Test system: KM-20L2
- assay-info: NCI tumour cell line growth inhibition, 48 h
Calls of active or inactive are those of the source. Cut-off read from the data, not from the text of the source: active = GI50 up to about 1.1 µM and inactive = higher.

Before answering, review these 6 worked examples.
compound	endpoint-result
Cc1cc(C)nc(NS(=O)(=O)c2ccc(NC(=O)c3cccc4c(Nc5ccc(S(=O)(=O)Nc6nc(C)cc(C)n6)cc5)c5ccccc5nc34)cc2)n1	20.1 µM (inactive)
CCN(CC)CCNc1ccc2ncn3c4ccc(OC)cc4c(=O)c1c23	0.964 µM (active)
C#CC1(O)CC(c2ccccc2)N(C)C(c2ccccc2)C1 (centres undefined)	> 100 µM (inactive)
Fc1ccc(/N=C2C=C/C(=N\c3ccc(F)cc3)c3ccccc3\2)cc1	> 100 µM (inactive)
COC(=O)C1=CC(O)CCC1c1ccc(OC)cc1 (centres undefined)	> 100 µM (inactive)
C1=C(c2ccccc2)C(OC2Oc3ccccc3C=C2c2ccccc2)Oc2ccccc21 (centres undefined)	> 100 µM (inactive)

Field GI50 (entry O=C(CCN1CCN(c2cccc(Cl)c2)CC1)N1CCc2c([nH]c3ccccc23)C1c1cccnc1 (centres undefined) ) reads 5.52 µM (inactive)

Measured GI50 of CC(=O)O/C(C)=C\C(=O)O/N=C(\N)c1ccc(C)cc1 : 33.7 µM (inactive)

Record CC(=O)OCC1OC(NC(=S)N/N=C2\CC(c3ccccc3)Oc3ccccc32)C(OC(C)=O)C(OC(C)=O)C1OC(C)=O (centres undefined) , field GI50: > 100 µM (inactive)

----------
- Test system: OVCAR-8
- assay-info: NCI tumour cell line growth inhibition, 48 h
Calls of active or inactive are those of the source. Cut-off read from the data, not from the text of the source: active = GI50 up to about 1.1 µM and inactive = higher.
endpoint-name: GI50

Consider the reported GI50 for these compounds:
compound	GI50
CCOC1C=CC(=O)C(CO)O1 (stereo unspecified)	11.6 µM (inactive)
Sc1nnc(COc2ccc(Cl)cc2Cl)[nH]1	> 100 µM (inactive)
COc1cc2oc(-c3ccc(O)cc3O)c(CC=C(C)C)c(=O)c2c(O)c1/C=C/C(C)C	1.75 µM (inactive)
O=C(Nc1ccc(Cl)cc1Cl)C1C(=O)N(c2ccc(Cl)cc2Cl)C(=O)/C1=N\Nc1ccc([N+](=O)[O-])cc1[N+](=O)[O-] (stereo unspecified)	60.8 µM (inactive)
COC(=O)CCC(=O)Nc1ccc(Cl)cc1C	> 100 µM (inactive)

Lab note: COc1cc(Br)c(/C=N\c2cccc3cc(OC)c(OC)cc23)cc1OC gave GI50 of 34.7 µM (inactive)

Short answer for O=C(O)Cc1nc[nH]c1C(=O)O : GI50 was > 100 µM (inactive)

Input CCOC(=O)Cn1c(C(F)(F)F)nc2nc(Cl)c(Cl)nc21 . Output GI50: 38.5 µM (inactive)

Lookup result for N#CC(c1nc2ccccc2s1)c1ncnc(Cl)c1[N+](=O)[O-] (stereo unspecified) ; measured GI50: 18.5 µM (inactive)

So for CS/C(=N\S(=O)(=O)c1ccc(Cl)cc1)NCCCCN/C(=N/S(=O)(=O)c1ccc(Cl)cc1)SC , the logged GI50 turned out to be 75.3 µM (inactive)

Sure, the documented GI50 for COc1cc(-c2ccccc2)cn2c1nc1ccccc12 is 24.8 µM (inactive)

----------
- System: SN12C
- assay-info: NCI tumour cell line growth inhibition, 48 h
The source made the active and inactive calls. Rule as the data show it: active = GI50 up to about 1.1 µM and inactive = higher.
Permitted responses: true for active, false for inactive

As a guide, the following entries are already answered.
molecule	classification
O=C(O)C(Cc1ccccc1)N1C(=O)N/C(=C\c2ccc(F)cc2)C1=O (stereo not given)	false
Cc1cn(C2CC(O)C(Cn3nncc3Cn3nc(Br)c(=O)[nH]c3=O)O2)c(=O)[nH]c1=O (stereo not given)	false
COc1ccc2c(c1)/C(=C(\C(Cl)=C(\Cl)N1CCCCC1)[N+](=O)[O-])N2	false
COc1cc2c3c(c1OC)C1(C=CC(=O)C=C1)C[C@H]3N(C)CC2	false
CN(C)CCNC(=O)c1cccc2nc3ccc4ccccc4c3nc12	true

Tell me the recorded outcome of this test for O=C(O)c1nn[nH]c1Cl .
false

# lookup: test call for Cc1ccc(S(=O)(=O)N/N=c2\c(C)c(C3=NS(=O)(=O)c4cc(S(N)(=O)=O)c(Cl)cc4N3)oc3c(Cl)cc(Cl)cc23)cc1
false

Look up the recorded call for CSC1(SC)CCCCCCCCCCC1 in this test.
false
